Assay: Tmax in female CD-1 mouse at 5 mg/kg, sc measured for 480 mins by LC-MS/MS analysis
Type: ADME, organism-based
Settings: in vivo
READOUT TYPE: Tmax (h)
Give just the number in h; leave the unit off.

*Q* Fill in reported Tmax for this entry: C#C[C@H](O)C#Cc1ccc(CCCCCCCC)cc1
*A* 1

----------
Experiment: Volume of distribution at steady state in female CD-1 mouse at 5 mg/kg, iv measured for 480 mins by LC-MS/MS analysis
Type: ADME, organism-based
Conditions: in vivo, read-out: Vdss
READOUT TYPE: Vd (L/kg)
Give just the number in L/kg; leave the unit off.

*Q* Fill in reported Vd for this entry: C#C[C@H](O)C#Cc1ccc(CCCCCCCC)cc1
*A* 1.5

----------
Assay: Volume of distribution in elimination phase in female CD-1 mouse at 5 mg/kg, iv measured for 480 mins by LC-MS/MS analysis
Type: ADME, organism-based
Settings: in vivo, read-out: Vz
READOUT TYPE: Vd (L/kg)
Give just the number in L/kg; leave the unit off.

*Q* Fill in reported Vd for this entry: C#C[C@H](O)C#Cc1ccc(CCCCCCCC)cc1
*A* 2.76

----------
Test: AUC in male CD-1 mouse at 5 mg/kg, po measured for 480 mins by LC-MS/MS analysis
Type: ADME, organism-based
Design: time 480 min, dose 5 mg/kg, route po
Conditions: in vivo
READOUT TYPE: AUC at 8 h (ng·h/mL)
Give just the number in ng·h/mL; leave the unit off.

*Q* Fill in reported AUC at 8 h for this entry: C#C[C@H](O)C#Cc1ccc(CCCCCCCC)cc1
*A* 47.4

----------
Experiment: Volume of distribution in elimination phase in male CD-1 mouse at 5 mg/kg, po measured for 480 mins by LC-MS/MS analysis
Type: ADME, organism-based
Conditions: in vivo, read-out: Vz/F
READOUT TYPE: Vd/F (L/kg)
Give just the number in L/kg; leave the unit off.

*Q* Fill in reported Vd/F for this entry: C#C[C@H](O)C#Cc1ccc(CCCCCCCC)cc1
*A* 97.2

----------
Test: Half life in female CD-1 mouse at 5 mg/kg, iv measured for 480 mins by LC-MS/MS analysis
Type: ADME, organism-based
Conditions: in vivo
READOUT TYPE: half-life
State the value, then name its unit.

*Q* Fill in reported half-life for this entry: C#C[C@H](O)C#Cc1ccc(CCCCCCCC)cc1
*A* 40 min

----------
Experiment: Half life in female CD-1 mouse at 5 mg/kg, sc measured for 480 mins by LC-MS/MS analysis
Type: ADME, organism-based
Details: in vivo
READOUT TYPE: half-life (h)
Give just the number in h; leave the unit off.

*Q* Fill in reported half-life for this entry: C#C[C@H](O)C#Cc1ccc(CCCCCCCC)cc1
*A* 2.45

----------
Assay: Solubility of compound in injection solution based on saline at approximately 1 mg incubated for 24 hrs by HPLC analysis
Format: physicochemical
READOUT TYPE: solubility at 24 h

*Q* Fill in reported solubility at 24 h for this entry: C#C[C@H](O)C#Cc1ccc(CCCCCCCC)cc1
*A* 10.7 mM

----------
Experiment: AUC in female CD-1 mouse at 5 mg/kg, iv measured for 480 mins by LC-MS/MS analysis
Format: ADME, organism-based
Parameters: dose 5 mg/kg, time 480 min, route iv
Settings: in vivo
READOUT TYPE: AUC at 8 h (ng·h/mL)
Give just the number in ng·h/mL; leave the unit off.

*Q* Fill in reported AUC at 8 h for this entry: C#C[C@H](O)C#Cc1ccc(CCCCCCCC)cc1
*A* 1760

// data source = ChEMBL document CHEMBL5370613
